Target: T1, recombinant protein corresponding to PDZ domain 1 (PDZ1) of PDZK1 (mouse)
T1 sequence (Q9JIL4 whole entry, looked up): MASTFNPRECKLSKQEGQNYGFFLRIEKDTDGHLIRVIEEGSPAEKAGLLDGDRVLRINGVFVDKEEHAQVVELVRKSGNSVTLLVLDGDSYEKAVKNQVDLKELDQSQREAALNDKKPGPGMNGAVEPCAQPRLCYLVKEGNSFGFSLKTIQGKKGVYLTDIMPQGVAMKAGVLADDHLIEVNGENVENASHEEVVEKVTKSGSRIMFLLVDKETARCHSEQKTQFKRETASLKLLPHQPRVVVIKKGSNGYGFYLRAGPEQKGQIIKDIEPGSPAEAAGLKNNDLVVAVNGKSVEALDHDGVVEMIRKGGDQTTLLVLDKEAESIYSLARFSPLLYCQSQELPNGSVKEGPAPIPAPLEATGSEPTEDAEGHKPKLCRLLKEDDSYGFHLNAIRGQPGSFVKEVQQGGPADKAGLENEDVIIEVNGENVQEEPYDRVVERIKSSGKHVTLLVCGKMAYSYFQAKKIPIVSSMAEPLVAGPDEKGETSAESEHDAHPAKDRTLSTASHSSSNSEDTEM
Assay: ITC; 1.0 mM peptide injected in 10 µl aliquots into 0.03 mM PDZ1 or full length PDZK1 in the cell; 150 mM NaCl, 25 mM Tris pH 8.0, 0.5 mM TCEP, 20°C; VP-ITC
MEASUREMENT_KIND: Kd (µM)
# unit: µM | format: bare number

Enquiry: Would you mind telling me what Kd value was observed for KKIAACSLC (prostacyclin receptor (IP), mouse, seven carboxy-terminal residues 411-417; also called target peptide; C-terminal nonapeptide from IP; source: synthetic peptide, HPLC purified (Tufts University Core Facility)) ?
Return: 8.2
